Hey, just so you know, these numbers are from patent US20080058636A1.

- system.name: rat collagen (acid soluble, type I, rat tail, Upstate 08-115) (rat) (UniProt P02454)
- Sequence (P02454 152-1207, chain 1 of 2): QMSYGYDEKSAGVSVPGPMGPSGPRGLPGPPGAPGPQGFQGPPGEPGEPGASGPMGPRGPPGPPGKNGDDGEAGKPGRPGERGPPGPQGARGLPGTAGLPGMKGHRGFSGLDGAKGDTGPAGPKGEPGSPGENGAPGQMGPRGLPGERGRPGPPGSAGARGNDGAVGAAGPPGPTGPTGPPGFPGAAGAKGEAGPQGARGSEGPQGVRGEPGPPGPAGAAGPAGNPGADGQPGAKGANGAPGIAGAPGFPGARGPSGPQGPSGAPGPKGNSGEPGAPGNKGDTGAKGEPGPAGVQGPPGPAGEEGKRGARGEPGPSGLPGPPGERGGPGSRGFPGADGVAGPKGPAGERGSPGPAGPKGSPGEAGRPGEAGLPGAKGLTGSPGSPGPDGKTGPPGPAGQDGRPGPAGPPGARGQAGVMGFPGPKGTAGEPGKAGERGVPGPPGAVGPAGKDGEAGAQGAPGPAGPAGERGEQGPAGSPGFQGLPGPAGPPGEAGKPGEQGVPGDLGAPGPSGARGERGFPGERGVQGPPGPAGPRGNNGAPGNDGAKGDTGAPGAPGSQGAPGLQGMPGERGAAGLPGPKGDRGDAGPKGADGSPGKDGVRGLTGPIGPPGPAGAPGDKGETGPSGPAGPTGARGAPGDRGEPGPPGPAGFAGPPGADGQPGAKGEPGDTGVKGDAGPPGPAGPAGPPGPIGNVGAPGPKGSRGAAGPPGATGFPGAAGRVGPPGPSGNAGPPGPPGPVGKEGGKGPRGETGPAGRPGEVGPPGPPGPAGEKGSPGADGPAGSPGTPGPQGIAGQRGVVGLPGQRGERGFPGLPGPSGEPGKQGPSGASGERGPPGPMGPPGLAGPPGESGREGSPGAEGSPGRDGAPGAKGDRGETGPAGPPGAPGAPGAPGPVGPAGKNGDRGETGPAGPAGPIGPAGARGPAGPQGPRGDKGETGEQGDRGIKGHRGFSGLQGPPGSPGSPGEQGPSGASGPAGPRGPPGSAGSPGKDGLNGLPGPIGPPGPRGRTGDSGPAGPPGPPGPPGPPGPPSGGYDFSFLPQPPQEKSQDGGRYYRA
- Sequence (P02466 86-1125, chain 2 of 2, further chain): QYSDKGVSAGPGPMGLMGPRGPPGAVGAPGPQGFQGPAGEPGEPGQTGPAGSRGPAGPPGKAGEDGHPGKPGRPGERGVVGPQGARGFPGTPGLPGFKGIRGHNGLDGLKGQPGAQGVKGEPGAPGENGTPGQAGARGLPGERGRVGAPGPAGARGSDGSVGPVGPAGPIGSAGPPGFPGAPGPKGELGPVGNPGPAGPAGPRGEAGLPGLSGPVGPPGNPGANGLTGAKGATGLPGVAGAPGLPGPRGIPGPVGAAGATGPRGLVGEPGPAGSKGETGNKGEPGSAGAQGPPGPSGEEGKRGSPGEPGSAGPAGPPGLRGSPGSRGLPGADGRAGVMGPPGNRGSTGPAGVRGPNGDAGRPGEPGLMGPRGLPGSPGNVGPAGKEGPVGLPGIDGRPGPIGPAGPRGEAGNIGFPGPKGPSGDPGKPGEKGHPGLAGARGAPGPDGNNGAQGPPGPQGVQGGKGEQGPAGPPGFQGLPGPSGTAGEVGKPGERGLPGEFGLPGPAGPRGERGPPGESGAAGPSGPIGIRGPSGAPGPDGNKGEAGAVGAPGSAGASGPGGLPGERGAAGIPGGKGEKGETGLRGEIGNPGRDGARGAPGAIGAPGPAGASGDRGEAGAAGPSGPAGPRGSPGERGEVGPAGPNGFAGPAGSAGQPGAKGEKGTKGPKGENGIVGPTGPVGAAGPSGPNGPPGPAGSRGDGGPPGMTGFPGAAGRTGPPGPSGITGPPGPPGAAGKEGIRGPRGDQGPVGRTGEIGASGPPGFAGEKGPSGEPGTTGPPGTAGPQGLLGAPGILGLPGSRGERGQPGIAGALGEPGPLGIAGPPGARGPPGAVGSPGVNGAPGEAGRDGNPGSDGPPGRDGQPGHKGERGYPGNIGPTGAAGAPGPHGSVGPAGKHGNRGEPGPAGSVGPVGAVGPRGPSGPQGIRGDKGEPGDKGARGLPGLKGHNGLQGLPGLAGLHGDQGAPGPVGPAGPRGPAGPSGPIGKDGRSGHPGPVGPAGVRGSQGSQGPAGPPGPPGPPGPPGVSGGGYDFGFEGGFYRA
- experiment.notes: dried collagen assay, 5 uM each
measured.endpoint: Rat binding (%)

# binder, unit.of.measurement, Rat binding
data = [
    ("GQWHCTTDFPHHYCLFG [Compound ID 890]", "%", 15),
]

a. GQWHCTTRFPSHYCLYG [Compound ID 880]
b. GQWHCTTLFPNHYCLYG [Compound ID 923]
c. GQWHCKTRFPHHYCLYG [Compound ID 957]
Ask: Endpoint returns the given binders ordered by ascending Rat binding. Put the labels in the requested order and list them out.
Reply: a, b, c
